Target: P2X7 receptor (Homo sapiens (Human))
Experiment: P2X7 FLIPR assay (BzATP-stimulated calcium fluorescence, antagonist IC50)
Format: cell-based
pIC50: −log10 of the molar value.
PROPERTY_LABEL: pIC50

molecule O=C(NCC(c1ccncc1)c1ccc(C(F)(F)F)nc1)c1cccc(Cl)c1Cl (stereo not shown) , pIC50 observed: 6.70

I: O=C(NCC1(c2ccc(F)nc2)CCC(F)(F)CC1)c1cccc(Cl)c1F
II: COc1ccc(C2(CNC(=O)c3cc(C)ccc3Cl)CCCC2)cc1
III: O=C(NCC(CC1CC1)c1cnc(C(F)(F)F)nc1)c1c(Cl)cccc1Cl (single isomer, unassigned; (+)) [(+)2,6-dichloro-N-[3-cyclopropyl-2-[2-(trifluoromethyl)pyrim]
Query :: Task field, ranking: reported pIC50, descending order. Ranked list of labels, please, in the requested order.
Result :: III, I, II
(III: 8.42, I: 7.96, II: 6.72)

---

Biological target: P2X7 receptor (Homo sapiens (Human), UniProt Q99572)
Sequence (Q99572 whole entry): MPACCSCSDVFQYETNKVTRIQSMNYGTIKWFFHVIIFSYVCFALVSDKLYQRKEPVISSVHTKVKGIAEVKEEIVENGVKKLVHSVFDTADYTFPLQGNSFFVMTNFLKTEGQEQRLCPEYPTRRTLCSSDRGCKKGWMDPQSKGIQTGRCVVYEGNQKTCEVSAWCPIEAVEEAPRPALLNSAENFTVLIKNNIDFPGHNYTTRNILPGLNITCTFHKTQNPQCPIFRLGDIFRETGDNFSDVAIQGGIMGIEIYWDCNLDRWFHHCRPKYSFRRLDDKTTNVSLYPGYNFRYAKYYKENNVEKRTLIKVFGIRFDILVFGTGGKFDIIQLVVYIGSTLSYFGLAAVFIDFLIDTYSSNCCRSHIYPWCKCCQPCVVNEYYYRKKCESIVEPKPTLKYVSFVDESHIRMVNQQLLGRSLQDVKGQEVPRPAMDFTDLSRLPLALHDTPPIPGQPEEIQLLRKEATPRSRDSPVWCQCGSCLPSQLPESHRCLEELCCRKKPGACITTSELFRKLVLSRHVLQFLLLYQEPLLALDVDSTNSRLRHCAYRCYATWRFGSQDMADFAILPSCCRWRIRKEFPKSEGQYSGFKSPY
Test: P2X7 FLIPR assay (BzATP-stimulated calcium fluorescence, antagonist IC50)
Type: cell-based
PROPERTY_LABEL: IC50 (nM)

compound COc1ccc(C2(CNC(=O)c3ccccc3C)CCCC2)cc1 , IC50 observed: 1400

compound COc1cccc(C(=O)NCC(CC2CC2)c2cnc(C(F)(F)F)nc2)c1Cl (single isomer, unassigned; (-)) [(−)2-chloro-N-[3-cyclopropyl-2-[2-(trifluoromethyl)pyrimidin] , IC50 observed: 3.4

compound Cc1ncc(C(CNC(=O)c2cccc(F)c2Cl)C2CCOCC2)cn1 (centres unmarked) , IC50 observed: 210

A: O=C(NCC(CC1CC1)c1ccc(C(F)(F)F)nc1)c1c(Cl)cccc1Cl (single isomer, unassigned; (-)) [(−)2,6-dichloro-N-[3-cyclopropyl-2-[6-(trifluoromethyl)-3-py]
B: O=C(NCC(CC1CC1)c1ccc(C(F)(F)F)nc1)c1cccc(F)c1Cl (stereo not drawn) [2(−)-chloro-N-[3-cyclopropyl-2-[6-(trifluoromethyl)-3-pyridy]
Query :: Short answer wanted: higher IC50, A or B ? Pick one and reply with its label.
Result :: B
(B: 2.9 nM, A: 1.2 nM)

1: CC(C)(O)c1ccc(C2(CNC(=O)c3cccc(Cl)c3Cl)CCC(F)(F)CC2)cn1
2: O=C(NCC1(c2ccc(C(F)(F)F)nc2)CCC(F)(F)CC1)c1ccccc1Cl
Query :: Which entry shows the lesser value of IC50 here, 1 or 2 ? Pick one and reply with its label.
Result :: 2

---

Target: P2X7 receptor (Homo sapiens (Human))
Test: P2X7 FLIPR assay (BzATP-stimulated calcium fluorescence, antagonist IC50)
Format: cell-based
PROPERTY_LABEL: IC50 (nM)

Examples with their reported IC50 follow.
compound O=C(NCC1(c2ccc(F)nc2)CCC(F)(F)CC1)c1cccc(F)c1F , IC50 observed: 290

compound O=C(NCC(CC1CC1)c1cnc(C(F)(F)F)nc1)c1cccc(Cl)c1Cl (stereo not shown) [2,3-dichloro-N-[3-cyclopropyl-2-[2-(trifluoromethyl)pyrimidi] , IC50 observed: 0.88

compound O=C(NCC(CC1(C(F)(F)F)CC1)c1cnc(C(F)(F)F)nc1)c1cccc(F)c1Cl (single isomer, unassigned; (-)) [(−)2-chloro-3-fluoro-N-[3-[1-(trifluoromethyl)cyclopropyl]-2] , IC50 observed: 29

compound O=C(NCC(CC1(C(F)(F)F)CC1)c1ccc(C2CC2)nc1)c1ccccc1F (stereo not shown) , IC50 observed: 1700

compound Cc1ccccc1C(=O)NCC1(c2ccccc2)CCN(C)CC1 , IC50 observed: 64

compound Cc1ncc(C2(CNC(=O)c3cccc(Cl)c3Cl)CCC(F)(F)CC2)cn1 , IC50 observed: 8.6

compound Cc1ncc(C2(C(C)NC(=O)c3c(F)cccc3Cl)CCC(F)(F)CC2)cn1 (stereo not shown) , IC50 observed: 1400

compound Cc1ncc(C2(C(C)NC(=O)c3cccc(F)c3Cl)CCC(F)(F)CC2)cn1 (stereo not shown) , IC50 observed: 2000

P: O=C(NCC(c1ccc(F)cc1)c1ccc(C(F)(F)F)nc1)c1c(F)cccc1Cl (single isomer, unassigned; (+)) [(+)2-chloro-6-fluoro-N-[2-(4-fluorophenyl)-2-[6-(trifluorome]
Q: Cc1ncc(C(CNC(=O)c2ccccc2Cl)C2CCC(F)(F)CC2)cn1 (stereo not shown)
R: O=C(NCC1(c2ccc(C(F)(F)F)cc2)CCOCC1)c1cccc(Cl)c1Cl
S: O=C(NCC(CC1(F)CC1)c1cnc(C(F)(F)F)nc1)c1cccc(Cl)c1Cl (stereo not shown)
T: O=C(NCC(CC1CC1)c1ccc(C(F)(F)F)nc1)c1c(F)cccc1F (single isomer, unassigned; (-)) [(−)N-[3-cyclopropyl-2-[6-(trifluoromethyl)-3-pyridyl]propyl]]
Query :: Please produce an ascending ranking of these compounds based on IC50. Ranked list of labels, please, in the requested order.
Result :: S, P, R, Q, T
